These measurements were taken from PubChem BioAssay.

# test_protocol: small-molecule microarray binders of probe aCHRDL2, primary screen, biochemical, biotinylated probe, 635/667 nm fluorescence (AID 1100)
# conditions: higher = more signal
Kind request: treat 0.2 as inclusive, so composite z-score at 0.2 or higher is rule met, anything lower is rule not met.

Example cases with answers are listed next.
| molecule | label_class |
| --- | --- |
| [N-]=[N+]=NCc1ccccc1C[C@@]1(C(=O)O)N=C(c2ccc(OCCCO)cc2)O[C@@H]1c1ccccc1N=[N+]=[N-] | rule met |
| C=CCC(OC(C)=O)[C@@H]1[C@@H](N(Cc2cc3ccccc3o2)C(=O)c2ccc(C)cc2)c2cc(OCCCO)ccc2N1C(=O)c1ccc2ccccc2n1 (stereo not given in full) | rule met |
| CCN1C(C)=C(C(=O)OC)[C@@H](c2ccccc2)N2C(=O)[C@](O)(C(=O)OC)[C@@H](c3ccccc3)C(C(C)=O)=C12 | rule not met |

Reported composite z-score at or above 0.2? COc1ccc([C@H]2C[C@H]3C(Br)=C[C@]2(OC)C(=O)[C@]32CO2)cc1 rule met

Reported composite z-score at or above 0.2? CCN1C(C)=C(C(=O)OC)[C@@H](c2ccccc2)N2C(=O)[C@](O)(C(=O)OC)[C@@H](c3ccccc3)C(C(=O)c3ccccc3)=C12 rule not met

Reported composite z-score at or above 0.2? C=C[C@H](OC)[C@@H](OC(=O)Nc1ccc(SC)cc1)c1ccc(O)c(F)c1 rule not met

Reported composite z-score at or above 0.2? O=C1c2ccccc2[C@](Cc2ccccc2I)(C(=O)NCc2ccccc2)[C@H](c2ccc(CO)cc2)N1Cc1ccccc1C(F)(F)F rule met

Reported composite z-score at or above 0.2? CCC#CCN(Cc1ccccc1Br)[C@H](/C=C/c1ccccc1)[C@@H](O)Cc1ccccc1 rule met

Reported composite z-score at or above 0.2? Cc1ccc(S[C@]2(C(=O)NC(C)C)CC(=O)N(Cc3cc(C(F)(F)F)cc(C(F)(F)F)c3)[C@@H]2c2ccc(CO)cc2I)cc1 rule met

Reported composite z-score at or above 0.2? CO[C@@H]1COC(=O)[C@H](C)NC(=O)CC=C[C@@H](C)[C@H](NS(=O)(=O)c2ccc(C)cc2)COC(=O)CC=C[C@@H]1C rule not met

Reported composite z-score at or above 0.2? CC(C)(C)OC(=O)CC[C@]1(C(=O)N2CCCCC2)N=C(c2ccc(OCCCO)cc2)O[C@H]1c1ccccc1 rule met

Reported composite z-score at or above 0.2? C#C[C@H](O[Si](C#Cc1ccccc1)(C(C)C)C(C)C)c1ccccc1 rule not met

Reported composite z-score at or above 0.2? CN(C)C(=O)[C@@]1(Cc2ccccc2N=[N+]=[N-])N=C(c2ccc(OCCCO)cc2)O[C@H]1c1ccccc1CN=[N+]=[N-] rule met

Reported composite z-score at or above 0.2? C=CCNC(=O)[C@H]1[C@@H]2C(=O)O[C@@H](c3ccccc3)[C@@H](c3ccccc3)N2[C@@H](c2ccc(O)cc2)[C@]12C(=O)Nc1ccc(C#CCNC(N)=O)cc12 rule met

Reported composite z-score at or above 0.2? C=C(CCCC)C(=O)CC[C@@H](OC(=O)c1cccnc1)c1cccc(OCCO)c1 rule met
